reported.endpoint: IC50 (µM)
// units = µM; emit number, no label

## Input Look up KDM3A (Homo sapiens) data: IC50 of `CC(C)c1c(-c2cnn(CCNC(=O)CCl)c2)[nH]c2c(C#N)cnn2c1=O` , then report it.
## Output 5.7

====

subject.of.test: KDM5A (Homo sapiens)
Sequence (P29375 whole entry): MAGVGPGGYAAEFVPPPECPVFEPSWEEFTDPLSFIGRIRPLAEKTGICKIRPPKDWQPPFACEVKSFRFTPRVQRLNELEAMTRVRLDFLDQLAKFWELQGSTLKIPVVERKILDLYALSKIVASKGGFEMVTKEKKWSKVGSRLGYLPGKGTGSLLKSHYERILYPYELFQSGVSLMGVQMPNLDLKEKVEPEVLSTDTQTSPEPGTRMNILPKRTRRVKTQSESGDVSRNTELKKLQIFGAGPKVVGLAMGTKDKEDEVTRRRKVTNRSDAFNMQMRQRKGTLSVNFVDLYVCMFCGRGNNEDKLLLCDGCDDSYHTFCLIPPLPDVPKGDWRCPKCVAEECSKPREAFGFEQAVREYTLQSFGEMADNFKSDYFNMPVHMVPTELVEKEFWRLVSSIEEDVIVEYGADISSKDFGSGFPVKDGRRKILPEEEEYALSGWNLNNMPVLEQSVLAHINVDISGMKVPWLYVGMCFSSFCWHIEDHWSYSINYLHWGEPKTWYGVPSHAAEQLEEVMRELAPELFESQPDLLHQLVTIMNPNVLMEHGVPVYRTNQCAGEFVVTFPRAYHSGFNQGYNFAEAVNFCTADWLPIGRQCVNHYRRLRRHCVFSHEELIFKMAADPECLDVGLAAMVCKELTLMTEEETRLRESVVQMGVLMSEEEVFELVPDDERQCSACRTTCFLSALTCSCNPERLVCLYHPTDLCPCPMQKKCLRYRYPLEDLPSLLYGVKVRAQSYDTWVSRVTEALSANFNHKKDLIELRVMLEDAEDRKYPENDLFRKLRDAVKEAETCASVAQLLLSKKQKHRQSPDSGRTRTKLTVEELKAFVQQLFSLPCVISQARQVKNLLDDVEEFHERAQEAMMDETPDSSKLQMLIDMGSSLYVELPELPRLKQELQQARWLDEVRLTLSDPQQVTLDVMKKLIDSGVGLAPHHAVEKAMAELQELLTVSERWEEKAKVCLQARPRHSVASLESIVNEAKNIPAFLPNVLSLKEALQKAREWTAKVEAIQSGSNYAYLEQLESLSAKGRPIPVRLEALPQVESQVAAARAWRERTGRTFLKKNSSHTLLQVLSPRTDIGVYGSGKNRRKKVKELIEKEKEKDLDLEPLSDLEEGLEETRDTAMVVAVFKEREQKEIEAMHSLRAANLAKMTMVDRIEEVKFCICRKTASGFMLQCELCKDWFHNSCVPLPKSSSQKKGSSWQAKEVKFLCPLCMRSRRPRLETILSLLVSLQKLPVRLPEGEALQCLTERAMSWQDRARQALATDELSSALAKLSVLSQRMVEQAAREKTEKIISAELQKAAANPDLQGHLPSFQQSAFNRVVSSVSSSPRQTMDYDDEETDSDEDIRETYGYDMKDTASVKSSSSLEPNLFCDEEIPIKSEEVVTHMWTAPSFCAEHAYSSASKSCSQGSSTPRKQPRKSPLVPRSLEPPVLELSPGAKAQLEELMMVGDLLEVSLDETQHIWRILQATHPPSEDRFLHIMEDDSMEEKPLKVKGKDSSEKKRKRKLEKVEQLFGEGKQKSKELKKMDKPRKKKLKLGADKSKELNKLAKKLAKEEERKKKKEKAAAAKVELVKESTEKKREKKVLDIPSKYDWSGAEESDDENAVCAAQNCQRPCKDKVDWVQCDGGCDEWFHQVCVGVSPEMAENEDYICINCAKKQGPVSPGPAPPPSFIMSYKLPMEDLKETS
protocol.description: KDM AlphaScreen selectivity panel, KDM5A
Format: biochemical
assay.setup: 120 minutes pre-incubation; read-out: KDM5A IC50
reported.endpoint: pIC50
Friendly reminder that pIC50 comes from taking -log10 of the concentration in mol/L.

## Input Item `CC(C)c1c(-c2cnn(CCNC(=O)CCl)c2)[nH]c2c(C#N)cnn2c1=O` : provide pIC50
## Output 8.00

====

subject.of.test: KDM5B (Homo sapiens, UniProt Q9UGL1, A373G/DEL102-140/DEL143-371/Q372G)
Construct: A KDM5B construct encoding regions Phe26-Ile770 was amplified from an OriGene cDNA clone; 6x-histidine tag (TEV-cleavable) (N, cleaved yes); made in house; host or cells: Sf9 insect cells (baculovirus)
Sequence (Q9UGL1 with tags, fused parts or gaps DEL102-140/DEL143-371/Q372G/A373G): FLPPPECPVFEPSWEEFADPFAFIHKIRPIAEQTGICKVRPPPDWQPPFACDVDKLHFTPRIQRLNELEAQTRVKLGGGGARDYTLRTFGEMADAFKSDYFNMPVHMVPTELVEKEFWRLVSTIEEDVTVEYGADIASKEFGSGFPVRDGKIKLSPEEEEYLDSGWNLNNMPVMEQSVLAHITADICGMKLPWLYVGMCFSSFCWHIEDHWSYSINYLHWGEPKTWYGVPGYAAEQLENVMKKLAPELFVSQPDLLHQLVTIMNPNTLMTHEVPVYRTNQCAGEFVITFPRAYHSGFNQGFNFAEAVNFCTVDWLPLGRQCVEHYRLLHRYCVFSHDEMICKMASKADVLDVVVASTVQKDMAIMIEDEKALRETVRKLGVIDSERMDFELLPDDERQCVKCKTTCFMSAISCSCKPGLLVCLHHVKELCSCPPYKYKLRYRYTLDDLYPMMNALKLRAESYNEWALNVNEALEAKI
protocol.description: KDM5B 2-OG competition assay (AlphaScreen)
Assay type: biochemical
assay.setup: ratio of IC50 values determined at 2‐OG concentrations of 1 mM and 1 μM
Method: KDM alpha screen selectivity Inhibition of histone demethylases was assessed using the histone demethylase AlphaScreen assay (Amplified Luminescence Proximity Homogenous Assay) as previously reported.[4] […] 2-OG competition assay were performed as described for the general KDM5B AlphaScreen method above, varying the 2-OG concentrations from a range of 1mM to 0.5 μM. Data were normalized to the no enzyme control and the IC50 determined from the nonlinear regression curve fit using GraphPad Prism 7.
reported.endpoint: 2‐OG shift
Could you keep your reply to the number by itself?

## Input Fill in: 2‐OG shift on KDM5B (Homo sapiens, UniProt Q9UGL1, A373G/DEL102-140/DEL143-371/Q372G), entry `C=CC(=O)N1CCC(n2cc(-c3[nH]c4c(C#N)cnn4c(=O)c3C(C)C)cn2)CC1`
## Output 2.4

## Input Give 2‐OG shift for `C=CC(=O)NCCOc1ccc(-c2[nH]c3c(C#N)cnn3c(=O)c2C(C)C)cc1` tested on KDM5B (Homo sapiens, UniProt Q9UGL1, A373G/DEL102-140/DEL143-371/Q372G).
## Output 1.9

## Input Report value: 2‐OG shift, system: KDM5B (Homo sapiens, UniProt Q9UGL1, A373G/DEL102-140/DEL143-371/Q372G), molecule: `CC(C)c1c(-c2cnn(C3CCN(C(=O)CCl)CC3)c2)[nH]c2c(C#N)cnn2c1=O`
## Output 1.3

## Input Under KDM5B (Homo sapiens, UniProt Q9UGL1, A373G/DEL102-140/DEL143-371/Q372G): report 2‐OG shift of `CN(CCc1cnn(-c2nccc3c(=O)[nH]cnc23)c1)Cc1cccc(NC(=O)CCl)c1` .
## Output 11

====

protocol.description: Caco-2 permeability
Assay type: in vitro ADME
assay.setup: human, Caco-2, Caco‐2 cells, A to B
Please provide measured Papp A→B for the entries that follow.

## Input Provide one value: measured Papp A→B of CN(C)C/C=C/C(=O)Nc1cccc(CN(C)CCc2cnn(-c3nccc4c(=O)[nH]cnc34)c2)c1 [Compound 6]
## Output < 1.5 ×10⁻⁶ cm/s

## Input Give the value of Papp A→B reported for the following: CN(CCc1cnn(-c2nccc3c(=O)[nH]cnc23)c1)Cc1cccc(NC(=O)CCl)c1 [Compound 5]
## Output < 1.5 ×10⁻⁶ cm/s

## Input Specify Papp A→B for C=CC(=O)N1CCC(n2cc(-c3[nH]c4c(C#N)cnn4c(=O)c3C(C)C)cn2)CC1 [Compound 10] and stop.
## Output < 0.76 ×10⁻⁶ cm/s

## Input Please report Papp A→B for the following compound: C=CC(=O)NCCOc1ccc(-c2[nH]c3c(C#N)cnn3c(=O)c2C(C)C)cc1 [Compound 9]
## Output < 0.76 ×10⁻⁶ cm/s

## Input Please give measured Papp A→B of the following entry: C=CC(=O)Nc1cccc(CN(C)CCc2cnn(-c3nccc4c(=O)[nH]cnc34)c2)c1 [Compound 4]
## Output < 1.5 ×10⁻⁶ cm/s

## Input Identify the reported Papp A→B for the following entry. CC(C)c1c(-c2cnn(CCNC(=O)CCl)c2)[nH]c2c(C#N)cnn2c1=O [Compound 7]
## Output < 0.76 ×10⁻⁶ cm/s

## Input Assign Papp A→B to the following record: C=CC(=O)N1CCN(CCc2cnn(-c3nccc4c(=O)[nH]cnc34)c2)CC1 [Compound 3]
## Output < 1.5 ×10⁻⁶ cm/s

## Input Write down Papp A→B measured for item CC(C)c1c(-c2cnn(C3CCN(C(=O)CCl)CC3)c2)[nH]c2c(C#N)cnn2c1=O [Compound 11]
## Output < 1.4 ×10⁻⁶ cm/s

====

subject.of.test: UniProt:Q9UGL1
protocol.description: KDM AlphaScreen selectivity panel, KDM5B
Format: biochemical
assay.setup: AlphaScreen after 120 min pre-incubation; read-out: KDM IC50 5B
Description: A panel of JmjC KDMs was tested by AlphaScreen to determine the selectivity of the compounds (Table S2). […] KDM alpha screen selectivity Inhibition of histone demethylases was assessed using the histone demethylase AlphaScreen assay (Amplified Luminescence Proximity Homogenous Assay) as previously reported.[4] […] Assays were performed as preciously described[5a, 5b] at a 2-OG concentration near the 2-OG Km values determined […]
Sequence (Q9UGL1 with tags, fused parts or gaps): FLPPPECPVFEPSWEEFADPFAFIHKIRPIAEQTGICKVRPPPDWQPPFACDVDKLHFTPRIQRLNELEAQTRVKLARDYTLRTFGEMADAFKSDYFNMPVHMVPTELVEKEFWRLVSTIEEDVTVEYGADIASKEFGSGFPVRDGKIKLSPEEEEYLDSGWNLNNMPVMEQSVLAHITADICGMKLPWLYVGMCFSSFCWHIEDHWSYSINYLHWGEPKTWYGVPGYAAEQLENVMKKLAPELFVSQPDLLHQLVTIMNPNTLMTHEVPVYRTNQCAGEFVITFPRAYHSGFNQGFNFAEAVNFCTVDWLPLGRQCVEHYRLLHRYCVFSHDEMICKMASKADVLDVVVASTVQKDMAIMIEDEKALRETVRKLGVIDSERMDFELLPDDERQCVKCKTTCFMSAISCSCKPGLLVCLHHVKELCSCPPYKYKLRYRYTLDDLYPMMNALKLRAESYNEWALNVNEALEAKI
reported.endpoint: pIC50
Scale explanation: pIC50 corresponds to minus log10 of a concentration expressed in moles per litre.

## Input Provide measured pIC50 value, entry: `CN(C)C/C=C/C(=O)Nc1cccc(CN(C)CCc2cnn(-c3nccc4c(=O)[nH]cnc34)c2)c1`
## Output 7.00

## Input Note pIC50 for the compound shown: `CC(C)c1c(-c2cnn(C3CCN(C(=O)CCl)CC3)c2)[nH]c2c(C#N)cnn2c1=O`
## Output 8.05

## Input Query pIC50 for `C=CC(=O)N1CCC(n2cc(-c3[nH]c4c(C#N)cnn4c(=O)c3C(C)C)cn2)CC1`
## Output 7.77

## Input Fill in reported pIC50 for this entry: `C=CC(=O)NCCOc1ccc(-c2[nH]c3c(C#N)cnn3c(=O)c2C(C)C)cc1`
## Output 7.19

====

Could you please report measured SI over KDM5B, 6B for the items listed next?
subject.of.test: KDM6B (Homo sapiens, UniProt O15054)
Sequence (O15054 whole entry): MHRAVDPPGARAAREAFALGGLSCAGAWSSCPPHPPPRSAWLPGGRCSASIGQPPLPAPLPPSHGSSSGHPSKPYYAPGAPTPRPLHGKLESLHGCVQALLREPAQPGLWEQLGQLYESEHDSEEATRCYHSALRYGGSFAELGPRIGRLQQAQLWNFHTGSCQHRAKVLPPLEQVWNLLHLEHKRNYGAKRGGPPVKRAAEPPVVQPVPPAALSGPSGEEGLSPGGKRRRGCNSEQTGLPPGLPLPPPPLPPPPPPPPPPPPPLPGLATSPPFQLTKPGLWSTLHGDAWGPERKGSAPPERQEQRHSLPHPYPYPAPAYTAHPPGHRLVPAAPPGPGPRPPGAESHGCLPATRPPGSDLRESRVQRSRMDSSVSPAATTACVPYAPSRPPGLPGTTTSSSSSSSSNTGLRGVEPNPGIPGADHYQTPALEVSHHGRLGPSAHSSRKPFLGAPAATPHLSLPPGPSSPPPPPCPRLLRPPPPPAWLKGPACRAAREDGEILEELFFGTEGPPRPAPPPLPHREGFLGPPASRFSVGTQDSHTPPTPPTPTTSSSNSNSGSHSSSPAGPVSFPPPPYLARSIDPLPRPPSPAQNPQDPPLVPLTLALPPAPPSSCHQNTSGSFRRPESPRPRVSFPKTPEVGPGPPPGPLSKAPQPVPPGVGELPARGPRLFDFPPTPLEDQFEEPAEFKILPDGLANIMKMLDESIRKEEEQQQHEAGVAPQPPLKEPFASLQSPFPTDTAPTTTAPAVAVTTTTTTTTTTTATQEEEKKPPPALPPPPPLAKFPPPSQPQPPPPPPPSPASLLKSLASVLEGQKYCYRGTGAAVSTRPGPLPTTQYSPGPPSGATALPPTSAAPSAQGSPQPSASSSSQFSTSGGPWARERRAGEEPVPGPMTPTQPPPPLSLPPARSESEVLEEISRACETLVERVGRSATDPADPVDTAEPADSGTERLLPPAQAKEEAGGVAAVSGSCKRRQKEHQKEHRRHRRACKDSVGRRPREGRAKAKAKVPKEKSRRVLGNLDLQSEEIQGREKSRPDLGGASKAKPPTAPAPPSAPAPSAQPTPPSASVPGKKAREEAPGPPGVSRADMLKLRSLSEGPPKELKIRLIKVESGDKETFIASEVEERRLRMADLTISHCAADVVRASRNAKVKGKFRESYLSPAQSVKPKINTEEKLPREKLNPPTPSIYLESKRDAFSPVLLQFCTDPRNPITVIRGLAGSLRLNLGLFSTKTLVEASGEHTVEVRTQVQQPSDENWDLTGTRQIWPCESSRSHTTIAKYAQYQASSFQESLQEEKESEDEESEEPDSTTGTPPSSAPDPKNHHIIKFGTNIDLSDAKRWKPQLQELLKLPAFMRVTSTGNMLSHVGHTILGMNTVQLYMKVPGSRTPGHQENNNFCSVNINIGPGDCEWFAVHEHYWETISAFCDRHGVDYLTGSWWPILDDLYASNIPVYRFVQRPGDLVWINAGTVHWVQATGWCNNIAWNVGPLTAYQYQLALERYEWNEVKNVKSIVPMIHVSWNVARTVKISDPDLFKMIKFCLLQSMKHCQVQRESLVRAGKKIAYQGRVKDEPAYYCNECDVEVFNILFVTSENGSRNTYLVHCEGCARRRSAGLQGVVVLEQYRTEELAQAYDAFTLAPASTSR
protocol.description: KDM AlphaScreen selectivity panel, KDM6B
Format: biochemical
assay.setup: KDM6B IC50/KDM5B IC50

## Input Let me know recorded SI over KDM5B, 6B for `CC(C)c1c(-c2cnn(CCNC(=O)CCl)c2)[nH]c2c(C#N)cnn2c1=O` , thanks.
## Output > 14285

## Input Quickly give me recorded SI over KDM5B, 6B for `CN(CCc1cnn(-c2nccc3c(=O)[nH]cnc23)c1)Cc1cccc(NC(=O)CCl)c1`
## Output 67

## Input Check the records and state SI over KDM5B, 6B for `C=CC(=O)Nc1cccc(CN(C)CCc2cnn(-c3nccc4c(=O)[nH]cnc34)c2)c1`
## Output > 1650

## Input Specify reported SI over KDM5B, 6B for the molecule shown: `C=CC(=O)NCCOc1ccc(-c2[nH]c3c(C#N)cnn3c(=O)c2C(C)C)cc1`
## Output > 1539

====

reported.endpoint: IC50

## Input Give reported IC50 for `CC(C)c1c(-c2cnn(CCNC(=O)CCl)c2)[nH]c2c(C#N)cnn2c1=O` (KDM6B (Homo sapiens, UniProt O15054))
## Output > 100 µM

## Input For KDM6B (Homo sapiens, UniProt O15054), give IC50 of the listed molecule: `C=CC(=O)Nc1cccc(CN(C)CCc2cnn(-c3nccc4c(=O)[nH]cnc34)c2)c1`
## Output > 33 µM

## Input Fill in IC50 for `CN(CCc1cnn(-c2nccc3c(=O)[nH]cnc23)c1)Cc1cccc(NC(=O)CCl)c1` tested with KDM6B (Homo sapiens, UniProt O15054).
## Output 0.67 µM

## Input State recorded IC50 with KDM6B (Homo sapiens, UniProt O15054), entry `CC(C)c1c(-c2cnn(C3CCN(C(=O)CCl)CC3)c2)[nH]c2c(C#N)cnn2c1=O` , no comment.
## Output > 100 µM

====

subject.of.test: KDM5B (Homo sapiens)
protocol.description: Timecourse KDM5B AlphaScreen inhibition and kinact/Ki calculation
Assay type: biochemical
assay.setup: Table S1
reported.endpoint: kinact/KI (M⁻¹ s⁻¹)
API: value field is a number in M⁻¹ s⁻¹; no unit string.

## Input Provide only the value of recorded kinact/KI for CN(CCc1cnn(-c2nccc3c(=O)[nH]cnc23)c1)Cc1cccc(NC(=O)CCl)c1 [Compound 5]
## Output 40000

## Input Give the measured kinact/KI for C=CC(=O)N1CCC(n2cc(-c3[nH]c4c(C#N)cnn4c(=O)c3C(C)C)cn2)CC1 [Compound 10]
## Output 20000

## Input Tell me its kinact/KI given CC(C)c1c(-c2cnn(C3CCN(C(=O)CCl)CC3)c2)[nH]c2c(C#N)cnn2c1=O [Compound 11] as the entry.
## Output 19000
